Biological target: mGlu8 (Rattus norvegicus)
Construct: expressed in transfected cells; host or cells: HEK293 (transient, electroporation)
Sequence (P70579 34-908): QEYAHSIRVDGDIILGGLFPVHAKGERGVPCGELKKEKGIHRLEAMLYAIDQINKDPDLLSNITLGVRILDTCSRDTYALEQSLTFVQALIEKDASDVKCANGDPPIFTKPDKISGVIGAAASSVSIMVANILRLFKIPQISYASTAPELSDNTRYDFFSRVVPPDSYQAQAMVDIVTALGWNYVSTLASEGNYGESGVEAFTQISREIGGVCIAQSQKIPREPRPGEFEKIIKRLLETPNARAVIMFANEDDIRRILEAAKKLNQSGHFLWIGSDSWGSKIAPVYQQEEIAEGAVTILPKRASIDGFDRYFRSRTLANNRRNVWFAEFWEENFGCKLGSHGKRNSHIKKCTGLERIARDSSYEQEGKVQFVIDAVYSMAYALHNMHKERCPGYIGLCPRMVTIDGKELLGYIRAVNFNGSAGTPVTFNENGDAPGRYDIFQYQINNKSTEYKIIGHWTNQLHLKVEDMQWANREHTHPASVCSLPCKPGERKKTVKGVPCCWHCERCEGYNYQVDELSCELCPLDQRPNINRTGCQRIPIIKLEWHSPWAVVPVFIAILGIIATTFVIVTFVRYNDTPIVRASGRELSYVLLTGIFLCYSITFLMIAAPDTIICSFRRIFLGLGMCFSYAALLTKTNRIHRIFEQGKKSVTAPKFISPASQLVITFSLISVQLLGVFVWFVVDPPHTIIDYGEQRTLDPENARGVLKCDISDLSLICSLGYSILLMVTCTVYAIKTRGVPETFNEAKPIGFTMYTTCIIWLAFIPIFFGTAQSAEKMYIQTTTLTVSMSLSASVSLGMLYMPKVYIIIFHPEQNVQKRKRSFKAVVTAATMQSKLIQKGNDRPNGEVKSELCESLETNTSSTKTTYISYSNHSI
Assay type: cell-based
Settings: agonist activity, IP production, HEK-293, mean ± SEM (n)
Value Kind: EC50 (nM)
// return numeric value only (unit: nM, not printed)

Task item: Quick one: EC50 for N[C@@H](CCP(=O)(O)O)C(=O)O [L-AP4, L(+)-2-Amino-4-phosphonobutyric Acid] ?
Reply: 128

* * *

Biological target: mGlu8 (Rattus norvegicus)
Construct: expressed in transfected cells; host or cells: HEK293 (transient, electroporation)
Assay type: cell-based
Protocol: These receptors were transiently expressed in HEK-293 cells as previously described. […] Cells were transiently transfected with rat clones of group-III mGlu receptors (mGlu4, mGlu6, mGlu7 and mGlu8) by electroporation as described elsewhere (ref. 6) and plated in 96-well microplates. […] Receptor activity was then determined by measurement of the IP production. […]
Value Kind: pEC50
Remember the convention: pEC50 equals -log10 of concentration in molar.

Task item: // fetch mGlu8 (Rattus norvegicus) pEC50 for N[C@@H](CCP(O)(O)=S)C(=O)O [L-thioAP4, L(+)-2-Amino-4-thiophosphonobutyric acid]
Reply: 7.27
